# target or system: HIV-1 Env of pseudovirus CNE52 (HIV-1)
# test name: cell-based or functional assay
result type: neutralization IC50 (µg/mL)
Only the number, expressed in µg/mL, is required.

The reported value for MS-87 (antibody, V domains shown) VH: QVQLVQSGPEVRKPGTSVKVSCKAPGNTLKTYDLHWVRSVPGQGLQWMGWISHEGDKKVIVERFKAKVTITRDRSTNTAYLQLSGLTSGDTAVYYCAKGSKHRLRDYALYDDDGALNWAVDVDYLSNLEFWGQGTAVTVSS VL: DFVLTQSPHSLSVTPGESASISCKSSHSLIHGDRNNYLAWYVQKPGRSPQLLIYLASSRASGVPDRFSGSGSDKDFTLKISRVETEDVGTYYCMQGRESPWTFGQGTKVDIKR in terms of neutralization IC50 is 2.69
